Cited source: PubChem BioAssay (NCATS)

- procedure-summary: qHTS of pediatric cancer cell lines to identify multiple opportunities for drug repurposing: Primary screen for Rh41 cells (AID 1347108); further: nearly all actives have a fitted effect of over 70% in size
- run-parameters: Rh41 rhabdomyosarcoma viability, CellTiter-Glo luminescence, 48 h; series mostly up to 46 µM
Results filed as inconclusive are left out. Calls of active or inactive are those of the source. The call rests on the fitted dose curve; in most records, active means well fitted cell-killing curve with a large enough effect; inconclusive means small, poorly fitted or top-dose-only effect; inactive means no such curve, though single readings can be large or run the other way.
Your answer must be one of the following: active, inactive

Data request: Call for entry CCCNCC(O)COc1ccccc1C(=O)CCc1ccccc1 (stereo not given) :
Data returned: inactive

Data request: What do you have for Fc1ccc([C@@H]2CCNC[C@H]2COc2ccc3c(c2)OCO3)cc1 ?
Data returned: inactive

Data request: Cool, now Cc1cnc(C(=O)NCCc2ccc(S(=O)(=O)NC(=O)NC3CCCCC3)cc2)cn1
Data returned: inactive

Data request: Also check Cn1c(=O)c2[nH]cnc2n(C)c1=O
Data returned: inactive

Data request: Another compound to check: C[C@](N)(Cc1ccc(O)c(O)c1)C(=O)O
Data returned: inactive

Data request: Query O=C(C1CCCCC1)N1CC(=O)N2CCc3ccccc3C2C1 (stereo not given) next
Data returned: inactive

Data request: Subsequent entry: O=c1c(O)c(-c2ccc(O)c(O)c2)oc2cc(O)cc(O)c12
Data returned: inactive

Data request: Check O=C1N(c2ccccc2)c2ccccc2C1(Cc1ccncc1)Cc1ccncc1 too.
Data returned: inactive

Data request: Next up: Cc1ccccc1N1C(=O)c2cc(S(N)(=O)=O)c(Cl)cc2NC1C (stereo not given)
Data returned: inactive

Data request: Can you check CCOC(=O)C(C)(C)Oc1ccc(Cl)cc1 next?
Data returned: inactive

Data request: # iterate: COc1ccc(C2CNC(=O)C2)cc1OC1CCCC1 (stereo not given)
Data returned: inactive

Data request: And CC(CCc1ccc(O)cc1)NCCc1ccc(O)c(O)c1 (stereo not given) ?
Data returned: inactive

Data request: Try COc1nc(C)nc(Cl)c1NC1=NCCN1 next.
Data returned: inactive

Data request: Now the compound CN(C)CCCN1c2ccccc2CCc2ccc(Cl)cc21
Data returned: inactive

Data request: Please do the same for CC(C)Cc1ccc(C(C)C(=O)O)cc1 (stereo not given) as well.
Data returned: inactive

Data request: What would you report for NS(=O)(=O)c1cc2c(cc1Cl)NCNS2(=O)=O ?
Data returned: inactive

Data request: Now this one: CC(C)NCC(O)COc1ccc(CCOCC2CC2)cc1 (stereo not given)
Data returned: inactive

Data request: # iterate: CN(C)CCC=C1c2ccccc2C=Cc2ccccc21
Data returned: inactive

Data request: Could you do the same for CC(C(=O)O)c1cccc(C(=O)c2ccccc2)c1 (stereo not given) , please?
Data returned: inactive

Data request: Would you mind doing CC(C)(C)C(=O)Oc1ccc(S(=O)(=O)Nc2ccccc2C(=O)NCC(=O)O)cc1 as well?
Data returned: inactive

Data request: Same question, O=C1Cc2cc(CCN3CCN(c4nsc5ccccc45)CC3)c(Cl)cc2N1 this time
Data returned: inactive

Data request: Let us now turn to CC(=O)OCC(CCn1cnc2cnc(N)nc21)COC(C)=O
Data returned: inactive

Data request: Next entry: CC(COc1ccccc1)N(CCCl)Cc1ccccc1 (stereo not given)
Data returned: inactive

Data request: Try this compound too: CC(C)C(=O)Nc1ccc([N+](=O)[O-])c(C(F)(F)F)c1
Data returned: active

Data request: One more compound: NCCCCCC(=O)O
Data returned: inactive

Data request: Another compound to check: O=C(CCCN1CCC(O)(c2ccc(Cl)cc2)CC1)c1ccc(F)cc1
Data returned: inactive

Data request: Request: CN1CCN(C2=Nc3cc(Cl)ccc3Nc3ccccc32)CC1
Data returned: inactive

Data request: Please give the result for NC(=O)OCC(COC(N)=O)c1ccccc1 too.
Data returned: inactive

Data request: Subsequent entry: CC1COc2c(N3CCN(C)CC3)c(F)cc3c(=O)c(C(=O)O)cn1c23 (stereo not given)
Data returned: inactive

Data request: Record: O=C(Nc1ccc([N+](=O)[O-])cc1Cl)c1cc(Cl)ccc1O
Data returned: active

Data request: Another compound to check: Clc1ccc2c(c1)C(N1CCNCC1)=Nc1ccccc1O2
Data returned: inactive

Data request: Now the compound Cc1cn([C@H]2C=C[C@@H](CO)O2)c(=O)[nH]c1=O
Data returned: inactive

Data request: Also O=c1[nH]cc(F)c(=O)[nH]1 , if possible.
Data returned: inactive

Data request: Moving on to the next compound: COc1ccc2[nH]cc(CCNC(C)=O)c2c1
Data returned: inactive

Data request: Similarly, OCCN(CCO)c1nc(N2CCCCC2)c2nc(N(CCO)CCO)nc(N3CCCCC3)c2n1 ?
Data returned: inactive
